- Test system: DENV-4 strain H241
- assayDetails: Tetravalent RT-qPCR assay, serotype 4
- Type: cell-based, Dengue virus
- measurementContext: RT-qPCR serotype 4 H241, Vero cells
Under this convention, YES denotes EC50 strictly below 20 nM and NO denotes EC50 at or above 20 nM.

compound: COc1cc(NC(C(=O)N2CCc3ccc(OC(F)(F)F)cc32)c2ccc(Cl)cc2)cc(OCC2CC(C(=O)O)C2)c1 (stereo not shown) [Compound 11B]
measurementTarget: DENV-4 strain H241
cat: YES

compound: COc1cc(NC(C(=O)N2CCc3ccc(OC(F)(F)F)cc32)c2ccc(Cl)cc2)cc(OCC2(F)CC2C(=O)O)c1 (stereo not shown) [Compound 28AB]
measurementTarget: DENV-4 strain H241
cat: NO

compound: COc1cc(NC(C(=O)N2CCc3ccc(OC(F)(F)F)cc32)c2ccc(Cl)cc2)cc(OCC2(F)CC2C(=O)O)c1 (stereo not shown) [Compound 29AB]
measurementTarget: DENV-4 strain H241
cat: NO

I wonder whether COc1cc(NC(C(=O)N2CCc3ccc(OC(F)(F)F)cc32)c2ccc(Cl)cc2)cc(OC2CC(C(=O)O)C2)c1 (stereo not shown) [Compound 7B] has EC50 below 20 nM. Can you tell?
YES

Does the reported EC50 of the following compound sit strictly below 20 nM? COc1cc(NC(C(=O)N2CCc3ccc(OC(F)(F)F)cc32)c2ccc(Cl)cc2OC)cc(OCCC(C)C(=O)O)c1 (single isomer, unassigned) [Compound 17D]
YES

Is the reported EC50 for COc1cc(NC2CC(C(=O)O)C2)cc(NC(C(=O)N2CCc3ccc(OC(F)(F)F)cc32)c2ccc(Cl)cc2)c1 (single isomer, unassigned) [Compound 33D] strictly below 20 nM?
NO

Problem: For the compound COc1cc(NC(C(=O)N2CCc3cc(OC)c(C(F)(F)F)cc32)c2ccc(Cl)cc2)cc(OCC2CC2C(=O)O)c1 (stereo not shown) [Compound 22AB] , is EC50 under 20 nM?
YES

Given COc1cc(NC(C(=O)N2CCc3cc(OC)c(C(F)(F)F)cc32)c2ccc(Cl)cc2)cc(OCC2CC(C(=O)O)C2)c1 (stereo not shown) [Compound 25B] , is recorded EC50 strictly lower than 20 nM?
NO

is_below(EC50, 20 nM) for COc1cc(NC(C(=O)N2CCc3cc(OC)c(C(F)(F)F)cc32)c2ccc(Cl)cc2)cc(OCC2CC2C(=O)O)c1 (stereo not shown) [Compound 22BB] ?
NO

is_below(EC50, 20 nM) for COc1cc(NC(C(=O)N2CCc3ccc(OC(F)(F)F)cc32)c2ccc(Cl)cc2)cc(OCC2(F)CC2C(=O)O)c1 (stereo not shown) [Compound 28BB] ?
YES

Is EC50 strictly under 20 nM for the entry COc1cc(NC(C(=O)N2CCc3cc(OC)c(C(F)(F)F)cc32)c2ccc(Cl)cc2)cc(OCCC(C)C(=O)O)c1 (single isomer, unassigned) [Compound 20D] ?
NO

# check: EC50 < 20 nM for COc1cc(NC(C(=O)N2CCc3ccc(OC(F)(F)F)cc32)c2ccc(Cl)cc2)cc(OCCC(C)C(=O)O)c1 (single isomer, unassigned)
NO

* * *

Listed next: entries and their corresponding CC50.
- assayDetails: in vitro
- measurementContext: African green monkey
Don't forget the unit after the value.

Some solved entries appear below for comparison.
compound: COc1cc(NC(C(=O)N2CCc3cc(OC)c(C(F)(F)F)cc32)c2ccc(Cl)cc2)cc(OCC2CC(C(=O)O)C2)c1 (stereo not drawn)
CC50: 12 µM

compound: COc1cc(NC(C(=O)N2CCc3cc(OC)c(C(F)(F)F)cc32)c2ccc(Cl)cc2)cc(OCCC(C)C(=O)O)c1 (single isomer, unassigned) [Compound 20A]
CC50: 12 µM

compound: COc1cc(NC(C(=O)N2CCc3ccc(OC(F)(F)F)cc32)c2ccc(Cl)cc2)cc(OCC2CC(C(=O)O)C2)c1 (stereo not drawn)
CC50: 12 µM

compound: COc1cc(NC(C(=O)N2CCc3ccc(OC(F)(F)F)cc32)c2ccc(Cl)cc2)cc(OCCC(C)C(=O)O)c1 (racemic) [Compound 1]
CC50: 11 µM

compound: COc1cc(NC(C(=O)N2CCc3cc(F)c(OC(F)(F)F)cc32)c2ccc(Cl)cc2)cc(OCC2CC2C(=O)O)c1 (single isomer, unassigned) [Compound 26A]
CC50: 14 µM

// next item, CC50 requested
Provide one value: measured CC50 of COc1cc(NC(C(=O)N2CCc3ccc(OC(F)(F)F)cc32)c2ccc(Cl)cc2)cc(OCC2(F)CC2C(=O)O)c1 (stereo not drawn) [Compound 29BB]
12 µM
